Source of measurements: patent US20230049752A1

- testedSystem: CLDN3/4 (endogenous on LS513 or MCF7 cells)
- experimentDescription: FACS titration of labelled mAb on LS513 cells (endogenous CLDN3/4+)
parameter: pEC50
Just so you know, pEC50 here is -log10 of the concentration in molar units; reply with that number alone.

AB13 (antibody, V domains shown) VH: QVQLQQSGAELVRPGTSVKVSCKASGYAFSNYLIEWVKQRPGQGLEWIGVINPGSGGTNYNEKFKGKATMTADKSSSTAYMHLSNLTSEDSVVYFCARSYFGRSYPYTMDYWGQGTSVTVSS VL: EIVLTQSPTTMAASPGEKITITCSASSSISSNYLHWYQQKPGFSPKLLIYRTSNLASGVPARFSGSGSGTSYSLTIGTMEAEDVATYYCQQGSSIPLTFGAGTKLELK :: 5.80

Now look at this one.
Q) Which pEC50 value is on record for AB18 (antibody, V domains shown) VH: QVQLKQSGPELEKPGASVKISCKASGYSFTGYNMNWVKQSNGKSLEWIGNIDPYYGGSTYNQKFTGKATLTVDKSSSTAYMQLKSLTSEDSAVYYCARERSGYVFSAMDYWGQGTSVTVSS VL: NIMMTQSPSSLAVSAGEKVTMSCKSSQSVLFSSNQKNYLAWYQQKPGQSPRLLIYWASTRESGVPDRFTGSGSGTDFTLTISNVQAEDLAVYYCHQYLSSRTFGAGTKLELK ?
A) 5.30
